Data provenance: patent US20100234450

# experimental system: PSMA (prostate-specific membrane antigen) (Homo sapiens, UniProt Q04609 Q04609:1-750)
# Sequence (Q04609 whole entry, one chain of several): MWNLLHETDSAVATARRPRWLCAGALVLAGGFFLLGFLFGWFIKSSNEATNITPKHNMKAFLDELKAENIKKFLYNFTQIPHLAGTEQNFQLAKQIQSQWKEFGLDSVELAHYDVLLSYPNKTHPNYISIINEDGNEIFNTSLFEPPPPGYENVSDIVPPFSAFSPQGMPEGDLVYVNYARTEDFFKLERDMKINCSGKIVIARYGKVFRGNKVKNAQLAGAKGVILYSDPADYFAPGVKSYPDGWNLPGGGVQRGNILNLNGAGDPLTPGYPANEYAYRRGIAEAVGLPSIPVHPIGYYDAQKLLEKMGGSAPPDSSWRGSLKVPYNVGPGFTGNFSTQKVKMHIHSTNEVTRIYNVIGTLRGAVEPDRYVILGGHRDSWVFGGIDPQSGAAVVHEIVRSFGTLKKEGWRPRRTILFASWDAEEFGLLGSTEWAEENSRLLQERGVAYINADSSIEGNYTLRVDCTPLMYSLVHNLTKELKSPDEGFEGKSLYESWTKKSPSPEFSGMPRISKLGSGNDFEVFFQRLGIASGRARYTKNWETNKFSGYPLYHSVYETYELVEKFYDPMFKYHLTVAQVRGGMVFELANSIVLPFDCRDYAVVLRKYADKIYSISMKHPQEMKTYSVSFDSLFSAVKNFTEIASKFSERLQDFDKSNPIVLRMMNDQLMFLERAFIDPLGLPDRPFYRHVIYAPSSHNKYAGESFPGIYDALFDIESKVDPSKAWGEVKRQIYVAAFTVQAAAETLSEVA
# assay notes: cell binding to PSMA-positive 22Rv1(1.7) cells
# cond: tags: none; endogenous on 22Rv1(1.7) and LNCaP prostate cancer cells; chain copies: 2; label: 5'-32P
recorded endpoint: Kd (nM)
Give the number; nM is assumed, so skip it.

Record GGGAGGACGAUGCGGAUCAGCCAUGUUUACGUCACUCCU (ssRNA) [A10-3.2 (32P)] . Reported Kd: 106
